assay.procedure: self-splicing fitness, log relative to wild type (ln ratio); higher = more splicing; Tetrahymena group I intron in knt gene, E. coli kanamycin selection, DiMSum; sequences stand for … in CUCUCU…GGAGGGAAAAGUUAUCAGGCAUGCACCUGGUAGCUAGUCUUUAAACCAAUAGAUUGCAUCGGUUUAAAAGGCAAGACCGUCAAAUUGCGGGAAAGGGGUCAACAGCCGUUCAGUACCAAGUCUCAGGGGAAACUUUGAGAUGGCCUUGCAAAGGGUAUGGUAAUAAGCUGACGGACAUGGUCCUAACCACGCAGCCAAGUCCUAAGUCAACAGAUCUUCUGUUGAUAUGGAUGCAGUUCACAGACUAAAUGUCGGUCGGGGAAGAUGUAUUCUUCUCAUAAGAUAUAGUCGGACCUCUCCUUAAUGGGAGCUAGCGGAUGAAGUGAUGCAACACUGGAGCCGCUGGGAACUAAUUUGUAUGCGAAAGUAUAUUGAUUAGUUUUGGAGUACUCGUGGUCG;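 further: selection with 25 µg/mL kanamycin versus none on LB agar overnight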
experimental.setup: 30 °C
measure.name: self-splicing fitness (ln)

GUAAAGCAAUAUUACGCUUA -1.27
CGUUAGCAAUAUUACGGUAU -3.23
ACACAGCAAUAUUACGUCGA -1.22
AUUAAGCAAUAUUACGUACU 0.0206
UUGUAGCAAUAUUACGAUUG -2.16
UAUGAGCAAUAUUACGCAUU -3.57
AUGUAGCAAUAUUACGCGCA -0.46
CGAAAGCAAUAUUACGCCUA -2.47
UUCGAGCAAUAUUACGAGCG -3.41
CACGAGCAAUAUUACGAUGG -1.81
ACUCAGCAAUAUUACGCUUU -1.85
CGGAAGCAAUAUUACGCCCA -0.0821

###

assay.procedure: self-splicing fitness, log relative to wild type (ln ratio); higher = more splicing; Tetrahymena group I intron in knt gene, E. coli kanamycin selection, DiMSum; sequences stand for … in CUCUCU…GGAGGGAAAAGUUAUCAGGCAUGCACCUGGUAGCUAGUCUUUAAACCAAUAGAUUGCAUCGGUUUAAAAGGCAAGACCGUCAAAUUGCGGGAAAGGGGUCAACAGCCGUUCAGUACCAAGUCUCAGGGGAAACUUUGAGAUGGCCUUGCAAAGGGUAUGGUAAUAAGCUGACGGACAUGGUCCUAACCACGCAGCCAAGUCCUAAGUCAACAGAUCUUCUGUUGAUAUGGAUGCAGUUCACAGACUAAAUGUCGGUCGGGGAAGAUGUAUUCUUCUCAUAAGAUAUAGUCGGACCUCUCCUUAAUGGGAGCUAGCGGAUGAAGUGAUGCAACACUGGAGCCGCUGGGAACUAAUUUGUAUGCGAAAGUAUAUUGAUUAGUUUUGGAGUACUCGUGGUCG
experimental.setup: 30 °C
measure.name: self-splicing fitness (ln)

UAUGAGCAAUAUUACGACUG -1.23
GGCGAGCAAUAUUACGAUCG -2.53
AGGGAGCAAUAUUACGAGCU -3.49
CUUGAGCAAUAUUACGCCGU -3.24
UACAAGCAAUAUUACGCCGU -2.13
ACUAAGCAAUAUUACGACCC -1.08
CUCUAGCAAUAUUACGGUAG -4.49

###

assay.procedure: self-splicing fitness, log relative to wild type (ln ratio); higher = more splicing; Tetrahymena group I intron in knt gene, E. coli kanamycin selection, DiMSum; sequences stand for … in CUCUCU…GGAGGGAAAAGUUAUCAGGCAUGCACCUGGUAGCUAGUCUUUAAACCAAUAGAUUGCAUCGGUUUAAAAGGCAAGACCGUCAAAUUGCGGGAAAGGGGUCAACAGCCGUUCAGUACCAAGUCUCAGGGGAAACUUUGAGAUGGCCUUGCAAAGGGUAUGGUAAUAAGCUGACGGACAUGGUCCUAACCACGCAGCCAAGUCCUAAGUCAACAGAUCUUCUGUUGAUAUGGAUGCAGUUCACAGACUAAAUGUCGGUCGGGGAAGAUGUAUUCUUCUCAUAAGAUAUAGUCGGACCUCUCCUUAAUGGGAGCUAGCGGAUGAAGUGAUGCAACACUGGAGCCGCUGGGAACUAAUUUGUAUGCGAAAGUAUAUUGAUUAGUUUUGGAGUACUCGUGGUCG
experimental.setup: 30 °C
Let's look at some sequences and their measured self-splicing fitness (ln).
measure.name: self-splicing fitness (ln)

CUUAAGCAAUAUUACGACGC -3.04
AAGGAGCAAUAUUACGGGGG -2.94
GCGGAGCAAUAUUACGCGGC -3.04
